Source listed as patent US10294202B2.

- Tested on: barnyardgrass
- measurement description: Test A pre-/postemergence herbicide test
- Format: in vivo, Echinochloa crus-galli
- measurement context: Postemergence, 1000 g ai/ha; 0 to 100 scale (0 no effect, 100 complete control)
Decision: Plant response rating, Barnyardgrass compared against 80; not below it gives 1.0, below it gives 0.0.

>  <compound>
Cn1ccnc1C1CNC(=O)C1C(=O)Nc1ccccc1F (racemic)

>  <label class>
0.0

$$$$
>  <compound>
CON(C(=O)C1C(=O)NCC1c1ccc(F)c(F)c1)c1ccccc1[N+](=O)[O-] (stereo not drawn)

>  <label class>
0.0

$$$$
>  <compound>
CS(=O)(=O)c1ccccc1NC(=O)C1C(=O)NCC1c1ccc(Cl)c(Cl)c1 (stereo not drawn)

>  <label class>
0.0

$$$$
>  <compound>
O=C(Nc1ccccc1F)C1C(=S)NCC1c1cccc(C(F)(F)F)c1 (stereo not drawn)

>  <label class>
1.0

$$$$
>  <compound>
O=C1NCC(c2ccc(F)c(F)c2)C1C(=O)N(O)c1ccccc1 (stereo not drawn)

>  <label class>
0.0

$$$$
>  <compound>
Cn1cc(C2CNC(=O)C2C(=O)Nc2ccccc2F)cn1 (racemic)

>  <label class>
0.0

$$$$
>  <compound>
O=C1NCC(c2cc(F)c(F)c(F)c2)C1C(=O)Nc1ccccc1C(F)(F)F (racemic)

>  <label class>
1.0

$$$$
>  <compound>
O=C1NCC(c2ccc(Cl)c(Cl)c2)C1C(=O)Nc1cccc(F)c1 (racemic)

>  <label class>
0.0

$$$$

* * *

- System: nutsedge, yellow
- measurement description: Test C pre-/postemergence herbicide test
- Format: in vivo, Cyperus esculentus
- measurement context: Postemergence, 62 g ai/ha; scale 0 (no effect) to 100 (complete control)
quantity: Plant response rating, Nutsedge, Yellow

>  <molecule>
O=C1NCC(c2cccc(Br)c2)C1C(=O)Nc1cccc(F)c1F (stereo not shown)

>  <measured value>
5

$$$$
>  <molecule>
CN1CC(c2cccc(C(F)(F)F)c2)C(C(=O)Nc2ccccc2F)C1=O (stereo not shown)

>  <measured value>
0

$$$$
>  <molecule>
CN1CC(c2ccc(F)c(F)c2)C(C(=O)Nc2ccccc2F)C1=O (stereo not shown)

>  <measured value>
0

$$$$
>  <molecule>
O=C1NCC(c2cccc(OC(F)F)c2)C1C(=O)Nc1ccccc1F (stereo not shown)

>  <measured value>
0

$$$$

* * *

- Test system: soybean
- measurement description: Test C pre-/postemergence herbicide test
- Type: in vivo, Glycine max
- measurement context: Preemergence, 125 g ai/ha; scale 0 to 100 (0 no effect, 100 complete control)
- Excerpt: […]
quantity: Plant response rating, Soybean

>  <compound>
O=C1NCC(c2ccc(F)cc2)C1C(=O)Nc1cccc(F)c1F (racemic) [Compound 119]

>  <measured value>
0

$$$$
>  <compound>
O=C1NCC(c2ccc(F)c(Cl)c2)C1C(=O)Nc1cccc(F)c1F (stereo not drawn) [Compound 59]

>  <measured value>
20

$$$$
>  <compound>
O=C1NCC(c2ccccc2)C1C(=O)Nc1ccccc1F (racemic) [Compound 81]

>  <measured value>
0

$$$$
>  <compound>
O=C1NCC(c2cccc(C(F)F)c2)C1C(=O)Nc1cccc(F)c1F (racemic) [Compound 211]

>  <measured value>
5

$$$$
>  <compound>
O=C1NCC(c2cc(F)c(F)c(F)c2)C1C(=O)Nc1ccccc1F (racemic) [Compound 34]

>  <measured value>
5

$$$$
>  <compound>
O=C1NCC(c2cccc(Br)c2)C1C(=O)Nc1cccc(F)c1F (stereo not drawn) [Compound 64]

>  <measured value>
40

$$$$
>  <compound>
O=C1NCC(c2cccc(Br)c2)C1C(=O)Nc1ccccc1F (stereo not drawn) [Compound 66]

>  <measured value>
20

$$$$
>  <compound>
O=C(Nc1ccccc1F)C1C(=S)NCC1c1cccc(C(F)(F)F)c1 (stereo not drawn) [Compound 274]

>  <measured value>
5

$$$$
>  <compound>
Cc1ccccc1NC(=O)C1C(=O)NCC1c1cc(F)c(F)c(F)c1 (racemic) [Compound 35]

>  <measured value>
0

$$$$

* * *

- Test system: barnyardgrass
- measurement description: Test C pre-/postemergence herbicide test
- Type: in vivo, Echinochloa crus-galli
- measurement context: Postemergence, 62 g ai/ha; scale 0 (no effect) to 100 (complete control)

>  <molecule>
O=C1NCC(c2cccc(OC(F)F)c2)C1C(=O)Nc1ccc(F)c(F)c1F (centres unmarked) [Compound 325]

>  <Plant response rating, Barnyardgrass>
25

$$$$
>  <molecule>
CN1CC(c2ccc(F)c(F)c2)C(C(=O)Nc2ccccc2F)C1=O (centres unmarked) [Compound 302]

>  <Plant response rating, Barnyardgrass>
20

$$$$
>  <molecule>
O=C1NCC(c2cccc(C(F)(F)F)c2)C1C(=O)Nc1ccc(F)cc1F (racemic) [Compound 207]

>  <Plant response rating, Barnyardgrass>
10

$$$$
>  <molecule>
O=C1NCC(c2cccc(OC(F)F)c2)C1C(=O)Nc1ccccc1F (centres unmarked) [Compound 223]

>  <Plant response rating, Barnyardgrass>
0

$$$$
>  <molecule>
O=C1NCC(c2ccc(F)cc2)C1C(=O)Nc1cccc(F)c1F (racemic) [Compound 119]

>  <Plant response rating, Barnyardgrass>
40

$$$$

* * *

- Tested on: barnyardgrass
- measurement description: Test C flooded paddy test
- Type: in vivo, Echinochloa crus-galli
- measurement context: Flood, 125 g ai/ha; scale of 0 to 100 where 0 is no effect and 100 is complete control; 13 to 15 days
This section presents compounds with their documented Plant response rating, Barnyardgrass values.

>  <compound>
CC1NC(=O)C(C(=O)Nc2ccccc2F)C1c1ccc(F)c(F)c1 (mixture of isomers)

>  <experimental system>
barnyardgrass

>  <Plant response rating, Barnyardgrass>
0

$$$$
>  <compound>
CC(C)(C)c1cccc(C2CNC(=O)C2C(=O)Nc2cccc(F)c2F)c1 (racemic)

>  <experimental system>
barnyardgrass

>  <Plant response rating, Barnyardgrass>
15

$$$$
>  <compound>
O=C1NCC(c2cccc(C(F)(F)F)c2)C1C(=O)Nc1nncs1 (racemic)

>  <experimental system>
barnyardgrass

>  <Plant response rating, Barnyardgrass>
0

$$$$
>  <compound>
O=C1NCC(c2ccc(Cl)cc2)C1C(=O)Nc1ccccc1F (racemic)

>  <experimental system>
barnyardgrass

>  <Plant response rating, Barnyardgrass>
0

$$$$
>  <compound>
O=C1NCC(c2ccc(C(F)(F)F)nc2)C1C(=O)Nc1cccc(F)c1F (racemic)

>  <experimental system>
barnyardgrass

>  <Plant response rating, Barnyardgrass>
45

$$$$
>  <compound>
O=C1NCC(c2ccc(F)cc2)C1C(=O)Nc1cccc(F)c1F (racemic)

>  <experimental system>
barnyardgrass

>  <Plant response rating, Barnyardgrass>
60

$$$$
>  <compound>
CC1NC(=O)C(C(=O)Nc2ccccc2C(F)(F)F)C1c1ccc(F)c(F)c1 (mixture of isomers)

>  <experimental system>
barnyardgrass

>  <Plant response rating, Barnyardgrass>
0

$$$$
>  <compound>
O=C1NCC(c2cccc(C(F)(F)F)c2)C1C(=O)Nc1ncc(Cl)s1 (racemic)

>  <experimental system>
barnyardgrass

>  <Plant response rating, Barnyardgrass>
0

$$$$
>  <compound>
O=C1NCC(c2cccc(OC(F)F)c2)C1C(=O)Nc1ccccc1F (stereo not drawn)

>  <experimental system>
barnyardgrass

>  <Plant response rating, Barnyardgrass>
0

$$$$

* * *

- Test system: rice
- measurement description: Test C flooded paddy test
- Assay type: in vivo, Oryza sativa
- measurement context: Flood, 125 g ai/ha; scale of 0 to 100 where 0 is no effect and 100 is complete control; 13 to 15 days
Each entry below lists one item and its recorded Plant response rating, Rice value.

>  <compound>
O=C1NCC(c2cccc(C(F)(F)F)c2)C1C(=O)Nc1ccc(F)cc1F (racemic)

>  <Plant response rating, Rice>
15

$$$$
>  <compound>
CN1CC(c2ccc(F)cc2)C(C(=O)Nc2cccc(F)c2F)C1=O (stereo not shown)

>  <Plant response rating, Rice>
0

$$$$
>  <compound>
O=C1NCC(c2cccc(C(F)(F)F)c2)C1C(=O)Nc1ncc(Cl)s1 (racemic)

>  <Plant response rating, Rice>
0

$$$$
>  <compound>
O=C1NCC(c2cccc(C(F)(F)F)c2)C1C(=O)Nc1ccccc1Cl (stereo not shown)

>  <Plant response rating, Rice>
0

$$$$
>  <compound>
O=C1NCC(c2cccc(C(F)F)c2)C1C(=O)Nc1cccc(F)c1F (racemic)

>  <Plant response rating, Rice>
0

$$$$
>  <compound>
CC1NC(=O)C(C(=O)Nc2ccccc2C(F)(F)F)C1c1ccc(F)c(F)c1 (mixture of isomers)

>  <Plant response rating, Rice>
0

$$$$
>  <compound>
O=C1NCC(c2cccc(F)c2)C1C(=O)Nc1ccccc1F (racemic)

>  <Plant response rating, Rice>
0

$$$$

* * *

Entries annotated with measured Velvetleaf plant response rating
- System: velvetleaf
- measurement description: Test C pre-/postemergence herbicide test
- Assay type: in vivo, Abutilon theophrasti
- measurement context: Preemergence, 62 g ai/ha; scale 0 to 100 (0 no effect, 100 complete control)

>  <compound>
O=C1NCC(c2ccc(C(F)(F)F)cc2)C1C(=O)Nc1ccccc1Cl (centres unmarked)

>  <experimental system>
velvetleaf

>  <Velvetleaf plant response rating>
25

$$$$
>  <compound>
O=C1NCC(c2cccc(OC(F)F)c2)C1C(=O)Nc1cccc(F)c1F (centres unmarked)

>  <experimental system>
velvetleaf

>  <Velvetleaf plant response rating>
35

$$$$
>  <compound>
CN1CC(c2cccc(C(F)(F)F)c2)C(C(=O)Nc2ccccc2F)C1=O (centres unmarked)

>  <experimental system>
velvetleaf

>  <Velvetleaf plant response rating>
0

$$$$
>  <compound>
O=C1NCC(c2cccc(C(F)(F)F)c2)C1C(=O)Nc1cccc(Cl)c1F (centres unmarked)

>  <experimental system>
velvetleaf

>  <Velvetleaf plant response rating>
10

$$$$
>  <compound>
O=C1NCC(c2cccc(C(F)(F)F)c2)C1C(=O)Nc1ccc(F)c(F)c1F (centres unmarked)

>  <experimental system>
velvetleaf

>  <Velvetleaf plant response rating>
30

$$$$
>  <compound>
CN1CC(c2ccc(F)c(F)c2)C(C(=O)Nc2ccccc2F)C1=O (centres unmarked)

>  <experimental system>
velvetleaf

>  <Velvetleaf plant response rating>
0

$$$$
>  <compound>
CN1CC(c2ccc(F)cc2)C(C(=O)Nc2cccc(F)c2F)C1=O (centres unmarked)

>  <experimental system>
velvetleaf

>  <Velvetleaf plant response rating>
10

$$$$
>  <compound>
CN1CC(c2ccc(C(F)(F)F)cc2)C(C(=O)Nc2ccccc2F)C1=O (centres unmarked)

>  <experimental system>
velvetleaf

>  <Velvetleaf plant response rating>
35

$$$$
